src = paper PMC12491069

tested on: HUVEC; assay: MTT cytotoxicity assay, HUVEC; type: cell-based; conditions: read-out: IC50 HUVEC; MTT, non-cancerous HUVEC line
IC50 values, listed per item
Express it in µM; write the number only.

N#Cc1ccc(COC[C@H]2O[C@@H](n3c(NCc4ccc(Cl)c(Cl)c4)nc4c(N)ncnc43)[C@H](O)[C@@H]2O)cc1 [VER-155008] = 150

Now take the following compound into account.
Recorded IC50 for Nc1c(C(=O)Nc2ccc(F)cc2)sc2nc(-c3cccs3)cc(C(F)(F)F)c12 [FDI-6] , please?
240
